- System: U87MG (Glioblastoma)
- assay.method.text: MTT cytotoxicity assay, 48 hours (Example 14)
- Format: cell-based
- assay.setup: 10 pM
Non-standard residues stand in square brackets, D forms with d. Residues, ends and D or L forms follow the SMILES beside them. *: point of attachment. Octanoyl = CCCCCCCC(=O)*; Ac5c = NC1(C(=O)O)CCCC1; Deg = CCC(N)(CC)C(=O)O; Aib = CC(C)(N)C(=O)O; Butyryl = CCCC(=O)*
measured.attribute: Percentage cytotoxicity (%)
Please give a number only; it is taken to be in %.

Worked cases, Percentage cytotoxicity given:
molecule="CCC(CC)(NC(=O)[C@H](Cc1c[nH]c2ccccc12)NC(=O)[C@H](CCC(N)=O)NC(=O)[C@H](N)Cc1ccccc1)C(=O)N[C@H](C(=O)NCC(=O)N[C@@H](Cc1c[nH]cn1)C(=O)N[C@@H](CC(C)C)C(N)=O)C(C)C [SEQ ID: 9, D-Phe-Gln-Trp-Deg-Val-Gly-His-Leu-NH2] (H-[dF]QW[Deg]VGHL-NH2; N-terminus assumed)" assayed_system="U87MG (Glioblastoma)" number=0.0
molecule="CC(C)C[C@H](NC(=O)[C@H](Cc1c[nH]cn1)NC(=O)C1(NC(=O)[C@@H](NC(=O)[C@H](C)NC(=O)[C@H](Cc2c[nH]c3ccccc23)NC(=O)[C@H](CCC(N)=O)NC(=O)[C@H](N)Cc2ccccc2)C(C)C)CCCC1)C(N)=O [SEQ ID: 10, D-Phe-Gln-Trp-Ala-Val-Ac5c-His-Leu-NH2] (H-[dF]QWAV[Ac5c]HL-NH2; N-terminus assumed)" assayed_system="U87MG (Glioblastoma)" number=11.6

Exercise: Query (molecule): CCCC(=O)N[C@H](Cc1ccccc1)C(=O)N[C@@H](CCC(N)=O)C(=O)N[C@@H](Cc1c[nH]c2ccccc12)C(=O)N[C@@H](C)C(=O)N[C@H](C(=O)NC(C)(C)C(=O)N[C@@H](Cc1c[nH]cn1)C(=O)N[C@@H](CC(C)C)C(N)=O)C(C)C [SEQ ID: 11] (Butyryl-[dF]QWAV[Aib]HL-NH2) ; field requested: Percentage cytotoxicity
Key: 21.9

Exercise: Percentage cytotoxicity lookup needed for CCCCCCCC(=O)N[C@H](Cc1ccccc1)C(=O)N[C@@H](CCC(N)=O)C(=O)N[C@@H](Cc1c[nH]c2ccccc12)C(=O)N[C@@H](C)C(=O)N[C@H](C(=O)NC(C)(C)C(=O)N[C@@H](Cc1c[nH]cn1)C(=O)N[C@@H](CC(C)C)C(N)=O)C(C)C [SEQ ID: 12] (Octanoyl-[dF]QWAV[Aib]HL-NH2) , thanks.
Key: 13.1
